From: patent US12643910B2

Biological target: human ENPP1 (Homo sapiens, UniProt P22413)
Construct: made in house
Sequence (P22413 1-925): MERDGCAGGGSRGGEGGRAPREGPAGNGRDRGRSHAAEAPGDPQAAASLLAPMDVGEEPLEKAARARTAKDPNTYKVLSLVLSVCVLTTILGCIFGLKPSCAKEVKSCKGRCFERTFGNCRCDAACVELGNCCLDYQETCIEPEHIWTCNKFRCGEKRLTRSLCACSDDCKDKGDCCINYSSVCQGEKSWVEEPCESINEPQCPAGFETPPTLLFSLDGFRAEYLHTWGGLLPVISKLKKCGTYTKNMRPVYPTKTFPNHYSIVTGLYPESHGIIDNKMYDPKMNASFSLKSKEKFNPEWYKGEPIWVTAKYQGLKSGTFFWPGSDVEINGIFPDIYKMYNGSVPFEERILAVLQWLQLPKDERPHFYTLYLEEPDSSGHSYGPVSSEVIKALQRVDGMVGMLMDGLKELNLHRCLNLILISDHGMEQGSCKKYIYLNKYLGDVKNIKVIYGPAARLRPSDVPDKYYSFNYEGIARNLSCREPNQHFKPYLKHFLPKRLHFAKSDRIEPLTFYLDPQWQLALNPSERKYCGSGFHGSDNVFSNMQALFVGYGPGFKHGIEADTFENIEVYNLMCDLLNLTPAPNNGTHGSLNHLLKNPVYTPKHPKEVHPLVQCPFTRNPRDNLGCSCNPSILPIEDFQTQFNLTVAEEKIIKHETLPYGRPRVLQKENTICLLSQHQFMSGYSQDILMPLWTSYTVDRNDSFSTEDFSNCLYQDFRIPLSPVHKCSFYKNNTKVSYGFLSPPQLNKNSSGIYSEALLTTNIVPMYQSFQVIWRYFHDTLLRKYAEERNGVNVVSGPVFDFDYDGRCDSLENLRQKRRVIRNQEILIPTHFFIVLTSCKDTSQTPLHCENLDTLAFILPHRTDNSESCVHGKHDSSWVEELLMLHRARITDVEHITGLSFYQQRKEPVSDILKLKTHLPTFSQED
Assay: ENPP1 assay with ATP substrate (Transcreener AMP2/GMP2 TR-FRET)
Assay type: biochemical
Details: 1 hour at room temperature
Quick reference for IC50 among some compounds
PROPERTY_LABEL: IC50

INSERT INTO assay_data (molecular_string, property_label, value_measured) VALUES
  ('O=C(CCc1ccc(F)cc1)NC1CCN(c2ncnc3c(Cl)csc23)CC1', 'IC50', '1 to 20 µM'),
  ('CCN(C)c1nc(NCc2ccc(S(N)(=O)=O)cc2)c2cnn(C)c2n1', 'IC50', '1 to 20 µM'),
  ('Cn1ncc2c(NCc3cccnc3)nc(-c3ccccn3)nc21', 'IC50', '> 20 µM'),
  ('COc1ccc(CNc2nc(-c3ccccn3)nc3c2cnn3C)cc1', 'IC50', '> 20 µM'),
  ('CCn1ncc2c(NCc3ccc(S(N)(=O)=O)cc3)nc(Cl)nc21', 'IC50', '< 0.1 µM'),
  ('Fc1ccc(CNc2nc(-c3ccccn3)nc3scc(-c4ccccc4)c23)cc1', 'IC50', '> 20 µM');

###

Target: human ENPP1 (Homo sapiens)
Construct: made in house
Test: ENPP1 assay with ATP substrate (Transcreener AMP2/GMP2 TR-FRET)
Assay type: biochemical
Conditions: 1 hour at room temperature
Examples of molecules with documented IC50 follow.
PROPERTY_LABEL: IC50

INSERT INTO assay_data (molecular_string, value_measured) VALUES
  ('Cn1ncc2c(NCc3ccc(S(N)(=O)=O)cc3)nc(-c3ccccc3)nc21', '1 to 20 µM'),
  ('CCCSc1nc(NCc2ccc(S(N)(=O)=O)cc2)c2cnn(C)c2n1', '< 0.1 µM'),
  ('Cn1ncc2c(NCc3ccc(S(N)(=O)=O)cc3)nc(-c3cccnc3)nc21', '1 to 20 µM'),
  ('Cc1csc2c(N3CCC(NCCCc4cccc(F)c4)CC3)ncnc12', '0.1 to 1 µM'),
  ('CN(Cc1ccc(S(N)(=O)=O)cc1)c1ncnc2c1cnn2C', '1 to 20 µM'),
  ('Cn1ncc2c(NCc3ccc(S(N)(=O)=O)c(F)c3)ncnc21', '< 0.1 µM'),
  ('Cn1ncc2c(N3CCC(NCCCc4ccc(F)cc4)CC3)ncnc21', '> 20 µM'),
  ('CC(C)CCOc1nc(NCc2ccc(S(N)(=O)=O)cc2)c2cnn(C)c2n1', '< 0.1 µM'),
  ('Fc1ccccc1CNc1nc(-c2ccccn2)nc2scc(-c3ccccc3)c12', '> 20 µM'),
  ('NS(=O)(=O)c1ccc(CNc2nc(-c3ccncc3)nc3scc(-c4ccccc4)c23)s1', '> 20 µM'),
  ('Cn1ncc2c(NCc3ccc(S(N)(=O)=O)cc3F)ccnc21', '< 0.1 µM'),
  ('Cn1ncc2c(NCc3ccc(S(N)(=O)=O)s3)nc(-c3ccccn3)nc21', '0.1 to 1 µM'),
  ('COc1nc(N2CCC(NCCCc3ccncc3)CC2)c2scc(C)c2n1', '1 to 20 µM'),
  ('Cc1csc2c(N3CCC(NCCCc4ccncc4F)CC3)ncnc12', '0.1 to 1 µM'),
  ('Cc1noc2ncnc(N3CCC(NCCCc4ccc(F)cc4)CC3)c12', '> 20 µM'),
  ('CN(C)CCN(C)c1nc(NCc2ccc(S(N)(=O)=O)cc2)c2c(-c3ccccc3)csc2n1', '< 0.1 µM'),
  ('CCSc1nc(NCc2ccc(S(N)(=O)=O)cc2)c2c(Br)nn(C)c2n1', '< 0.1 µM'),
  ('CCn1ncc2c(NCc3ccc(S(N)(=O)=O)cc3)nc(OCCC(C)C)nc21', '< 0.1 µM'),
  ('Cc1cc(S(N)(=O)=O)ccc1CNc1ncnc2c1cnn2C', '0.1 to 1 µM'),
  ('c1ccc(CNc2nc(-c3ccccn3)nc3scc(-c4ccccc4)c23)cc1', '> 20 µM');

###

// values below are reported IC50
Target: UniProtKB O14638
Sequence (O14638 1-875): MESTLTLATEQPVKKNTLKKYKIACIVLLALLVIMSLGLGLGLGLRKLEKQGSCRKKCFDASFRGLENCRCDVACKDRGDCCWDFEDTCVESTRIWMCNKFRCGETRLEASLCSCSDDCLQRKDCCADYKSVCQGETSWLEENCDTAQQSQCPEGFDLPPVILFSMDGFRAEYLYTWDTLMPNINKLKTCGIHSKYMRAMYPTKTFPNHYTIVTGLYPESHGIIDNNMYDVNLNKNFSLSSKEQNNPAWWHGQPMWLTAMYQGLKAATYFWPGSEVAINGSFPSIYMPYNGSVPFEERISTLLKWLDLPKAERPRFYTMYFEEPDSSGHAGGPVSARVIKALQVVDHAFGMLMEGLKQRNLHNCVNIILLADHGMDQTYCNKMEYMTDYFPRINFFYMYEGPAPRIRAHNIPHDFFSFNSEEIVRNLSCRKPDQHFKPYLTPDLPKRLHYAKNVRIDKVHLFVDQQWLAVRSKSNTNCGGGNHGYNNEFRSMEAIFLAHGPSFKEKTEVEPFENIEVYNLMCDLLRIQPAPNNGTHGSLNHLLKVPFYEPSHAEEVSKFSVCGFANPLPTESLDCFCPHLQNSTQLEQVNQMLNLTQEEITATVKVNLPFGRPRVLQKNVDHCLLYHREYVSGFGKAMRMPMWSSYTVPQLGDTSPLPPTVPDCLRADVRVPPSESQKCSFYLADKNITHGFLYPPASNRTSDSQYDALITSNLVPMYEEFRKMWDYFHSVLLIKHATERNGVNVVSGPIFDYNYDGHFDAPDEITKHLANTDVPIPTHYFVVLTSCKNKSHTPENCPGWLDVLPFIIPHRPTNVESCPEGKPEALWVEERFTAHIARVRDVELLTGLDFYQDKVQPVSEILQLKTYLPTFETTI
Experiment: ENPP3 Km ATP assay
Format: biochemical
Settings: ATP at Km
PROPERTY_LABEL: IC50

INSERT INTO assay_data (molecule, value_measured) VALUES
  ('C=Cc1nc(NCc2ccc(S(N)(=O)=O)cc2)c2cnn(C)c2n1 [Example 2.39]', '< 0.1 µM'),
  ('Cc1csc2c(N3CCC(NC(=O)Cc4ccc(F)cc4)CC3)ncnc12 [Example 3.43]', '> 20 µM'),
  ('COc1nc(NCc2ccc(S(N)(=O)=O)s2)c2cnn(C)c2n1 [Example 2.95]', '0.1 to 1 µM'),
  ('Cn1ncc2c(NCc3ccc(S(N)(=O)=O)cc3)nc(NC3CC3)nc21 [Example 2.35]', '0.1 to 1 µM'),
  ('COCCN(C)c1nc(NCc2ccc(S(N)(=O)=O)cc2)c2c(-c3ccccc3)csc2n1 [Example 1.55]', '0.1 to 1 µM'),
  ('Cc1cc(CCCNC2CCN(c3ncnc4c(C)csc34)CC2)ccn1 [Example 3.30]', '> 20 µM'),
  ('Cc1noc2ncnc(N3CCC(NCCCc4ccc(F)cc4)CC3)c12 [Example 2.57]', '> 20 µM'),
  ('CN1CCC(n2ncc3c(NCc4ccc(S(N)(=O)=O)cc4)ncnc32)CC1 [Example 2.43]', '1 to 20 µM'),
  ('CCSc1nc(NCc2ccc(S(N)(=O)=O)cc2)c2c(Br)nn(C)c2n1 [Example 2.110]', '< 0.1 µM'),
  ('CCNc1cc(NCc2ccc(S(N)(=O)=O)cc2F)c2cnn(C)c2n1 [Example 2.144]', '0.1 to 1 µM'),
  ('Cn1ncc2c(NCc3ccc(S(N)(=O)=O)cc3Cl)ncnc21 [Example 2.47]', '1 to 20 µM'),
  ('Cn1ncc2c(NCc3ccc(S(N)(=O)=O)cc3)nc(NC3CCCCC3)nc21 [Example 2.30]', '1 to 20 µM'),
  ('Cn1ncc2c(NCc3ccc(S(N)(=O)=O)c(C(F)(F)F)c3)ncnc21 [Example 2.41]', '1 to 20 µM'),
  ('COc1cc(CNc2ccnc3c2cnn3C)ccc1S(N)(=O)=O [Example 2.65]', '> 20 µM');
